- tgt: hexahistidine (6His)-tagged KDM2B/SKP1 dimer (human, UniProt Q8NHM5 1059-1336; P63208 1-163)
- Sequence (Q8NHM5 1059-1336, chain 1 of 2): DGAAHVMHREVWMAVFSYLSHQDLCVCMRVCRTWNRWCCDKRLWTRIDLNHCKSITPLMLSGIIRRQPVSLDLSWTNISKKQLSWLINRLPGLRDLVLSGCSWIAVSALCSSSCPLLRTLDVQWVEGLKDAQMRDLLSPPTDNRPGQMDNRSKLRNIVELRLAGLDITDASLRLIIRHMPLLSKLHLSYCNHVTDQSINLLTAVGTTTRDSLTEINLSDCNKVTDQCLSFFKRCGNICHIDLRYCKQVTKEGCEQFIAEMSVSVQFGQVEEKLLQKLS
- Sequence (P63208 whole entry, chain 2 of 2): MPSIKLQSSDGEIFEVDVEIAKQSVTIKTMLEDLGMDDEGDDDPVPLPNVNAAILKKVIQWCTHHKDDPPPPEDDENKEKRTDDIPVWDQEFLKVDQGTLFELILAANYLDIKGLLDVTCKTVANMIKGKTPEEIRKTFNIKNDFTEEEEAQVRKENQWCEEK
- assay name: BLI
test readout: Kd

Kd lookup needed for PCGF1 RAWUL (150–259)/BCORL1 PUFD dimer (complex, human) chain 1: LPFSSFDHSKAHYYRYDEQLNLCLERLSSGKDKNKSVLQNKYVRCSVRAEVRHLRRVLCHRLMLNPQHVQLLFDNEVLPDHMTMKQIWLSRWFGKPSPLLLQYSVKEKRR chain 2: DDFMFELSDKPLLPCYNLQVSVSRGPCNWFLFSDVLKRLKLSSRIFQARFPHFEITTMPKAEFYRQVASSQLLTPAERPGGLDDRSPPGSSETVELVRYEPDLLRLLGSEVEFQSCNS , thanks.
~240 nM
